These data points were gathered from paper PMC9911399.

Assignment: determine reported binding signal for the given binders.
# Study Target: T1, RBFOX1 RRM (Homo sapiens, UniProt Q9NWB1 109-208)
# T1 sequence: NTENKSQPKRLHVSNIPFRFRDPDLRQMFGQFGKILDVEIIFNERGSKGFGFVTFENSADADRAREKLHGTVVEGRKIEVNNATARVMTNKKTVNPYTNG
# Experiment Description: EMSA; HiTS-Eq, 1 nM pool, 10 min; buffer printed only for the single-RNA assays: 10 mM Tris pH 7.5, 150 mM NaCl, 3.4 mM EDTA, 0.001% NP-40, 30 C
# Assay Setup: tags: His6 N-terminal (pET28a); label: 5' 32P
Over roughly 16,000 sequences, “ka relative to ugcaugu” has its median near 0.0091; the highest 2% begin near 0.032. Many of the other results were omitted from the sample, so the highest values are more common in it than they were.

Lab book: binding signal of GGGAUUC (DNA:RNA) RNA: GGGAGACCGGAAUUCAGAUUGUCCGGGAUUCUUAAAUCCCGUCGUAGCCACCA DNA 1: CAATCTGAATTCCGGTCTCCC DNA 2: TGGTGGCTACGACGGGATT noted as 0.044 KA relative to UGCAUGU

Lab book: binding signal of GUUGUGG (DNA:RNA) RNA: GGGAGACCGGAAUUCAGAUUGUCCGUUGUGGUUAAAUCCCGUCGUAGCCACCA DNA 1: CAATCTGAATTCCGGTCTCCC DNA 2: TGGTGGCTACGACGGGATT noted as 0.0184 KA relative to UGCAUGU

Lab book: binding signal of GUAUACC (DNA:RNA) RNA: GGGAGACCGGAAUUCAGAUUGUCCGUAUACCUUAAAUCCCGUCGUAGCCACCA DNA 1: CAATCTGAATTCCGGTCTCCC DNA 2: TGGTGGCTACGACGGGATT noted as 0.0043 KA relative to UGCAUGU

Lab book: binding signal of CGGAAUG (DNA:RNA) RNA: GGGAGACCGGAAUUCAGAUUGUCCCGGAAUGUUAAAUCCCGUCGUAGCCACCA DNA 1: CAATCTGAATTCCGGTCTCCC DNA 2: TGGTGGCTACGACGGGATT noted as 0.0596 KA relative to UGCAUGU

Lab book: binding signal of GGAGUGU (DNA:RNA) RNA: GGGAGACCGGAAUUCAGAUUGUCCGGAGUGUUUAAAUCCCGUCGUAGCCACCA DNA 1: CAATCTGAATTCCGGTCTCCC DNA 2: TGGTGGCTACGACGGGATT noted as 0.0229 KA relative to UGCAUGU

Lab book: binding signal of AGGAAUG (DNA:RNA) RNA: GGGAGACCGGAAUUCAGAUUGUCCAGGAAUGUUAAAUCCCGUCGUAGCCACCA DNA 1: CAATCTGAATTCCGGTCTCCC DNA 2: TGGTGGCTACGACGGGATT noted as 0.0471 KA relative to UGCAUGU

Lab book: binding signal of AGGAAUC (DNA:RNA) RNA: GGGAGACCGGAAUUCAGAUUGUCCAGGAAUCUUAAAUCCCGUCGUAGCCACCA DNA 1: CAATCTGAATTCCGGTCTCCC DNA 2: TGGTGGCTACGACGGGATT noted as 0.0141 KA relative to UGCAUGU

Lab book: binding signal of GUAAUGU (DNA:RNA) RNA: GGGAGACCGGAAUUCAGAUUGUCCGUAAUGUUUAAAUCCCGUCGUAGCCACCA DNA 1: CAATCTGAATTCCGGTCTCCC DNA 2: TGGTGGCTACGACGGGATT noted as 0.0122 KA relative to UGCAUGU

Lab book: binding signal of UCGAAUC (DNA:RNA) RNA: GGGAGACCGGAAUUCAGAUUGUCCUCGAAUCUUAAAUCCCGUCGUAGCCACCA DNA 1: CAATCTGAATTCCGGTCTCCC DNA 2: TGGTGGCTACGACGGGATT noted as 0.0109 KA relative to UGCAUGU

Lab book: binding signal of AGGAUUG (DNA:RNA) RNA: GGGAGACCGGAAUUCAGAUUGUCCAGGAUUGUUAAAUCCCGUCGUAGCCACCA DNA 1: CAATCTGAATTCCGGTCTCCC DNA 2: TGGTGGCTACGACGGGATT noted as 0.0293 KA relative to UGCAUGU

Lab book: binding signal of GGAAUGU (DNA:RNA) RNA: GGGAGACCGGAAUUCAGAUUGUCCGGAAUGUUUAAAUCCCGUCGUAGCCACCA DNA 1: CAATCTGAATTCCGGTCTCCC DNA 2: TGGTGGCTACGACGGGATT noted as 0.0563 KA relative to UGCAUGU

Lab book: binding signal of ACGUGAA (DNA:RNA) RNA: GGGAGACCGGAAUUCAGAUUGUCCACGUGAAUUAAAUCCCGUCGUAGCCACCA DNA 1: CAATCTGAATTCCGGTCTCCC DNA 2: TGGTGGCTACGACGGGATT noted as 0.00505 KA relative to UGCAUGU

Lab book: binding signal of GUUAAUC (DNA:RNA) RNA: GGGAGACCGGAAUUCAGAUUGUCCGUUAAUCUUAAAUCCCGUCGUAGCCACCA DNA 1: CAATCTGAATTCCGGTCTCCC DNA 2: TGGTGGCTACGACGGGATT noted as 0.00989 KA relative to UGCAUGU

Lab book: binding signal of UCGAUUG (DNA:RNA) RNA: GGGAGACCGGAAUUCAGAUUGUCCUCGAUUGUUAAAUCCCGUCGUAGCCACCA DNA 1: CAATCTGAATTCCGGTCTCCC DNA 2: TGGTGGCTACGACGGGATT noted as 0.0206 KA relative to UGCAUGU

Lab book: binding signal of UCGAAUG (DNA:RNA) RNA: GGGAGACCGGAAUUCAGAUUGUCCUCGAAUGUUAAAUCCCGUCGUAGCCACCA DNA 1: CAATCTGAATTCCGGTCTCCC DNA 2: TGGTGGCTACGACGGGATT noted as 0.0323 KA relative to UGCAUGU

Lab book: binding signal of GGAAUUC (DNA:RNA) RNA: GGGAGACCGGAAUUCAGAUUGUCCGGAAUUCUUAAAUCCCGUCGUAGCCACCA DNA 1: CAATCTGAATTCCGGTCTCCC DNA 2: TGGTGGCTACGACGGGATT noted as 0.018 KA relative to UGCAUGU

Lab book: binding signal of AAACCAG (DNA:RNA) RNA: GGGAGACCGGAAUUCAGAUUGUCCAAACCAGUUAAAUCCCGUCGUAGCCACCA DNA 1: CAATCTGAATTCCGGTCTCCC DNA 2: TGGTGGCTACGACGGGATT noted as 0.000872 KA relative to UGCAUGU
